// data source = paper PMC12416549

# Study Target: T1, TNFR1 (Homo sapiens, UniProt P19438)
# T1 chain: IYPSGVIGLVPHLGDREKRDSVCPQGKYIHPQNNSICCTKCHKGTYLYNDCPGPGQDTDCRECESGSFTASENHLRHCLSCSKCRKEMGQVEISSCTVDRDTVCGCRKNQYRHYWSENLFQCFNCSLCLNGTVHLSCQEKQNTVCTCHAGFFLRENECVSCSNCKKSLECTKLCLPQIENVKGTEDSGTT
# Experiment: yeast display SC50
Property Name: apparent Kd (screen) (nM)
# unit: nM | format: bare number

input: Name the reported apparent Kd (screen) value associated with the binder K48P (designed binder) SMEEEVEKAAKEYEKKKKEAIEKHLEKLKAKDKEAAERFLKELEEAAPEYAKDEAKTMSEEEAKRRAKKYKEKVLLSELSEEEQKEIKEAEEKLVRTILKYVEEAAK
output: 12.5

input: Name the reported apparent Kd (screen) value associated with the binder E91M (designed binder) SMEEEVEKAAKEYEKKKKEAIEKHLEKLKAKDKEAAERFLKELEEAAKEYAKDEAKTMSEEEAKRRAKKYKEKVLLSELSEEEQKEIKEAMEKLVRTILKYVEEAAK
output: 11.4
